- Assay target: MERTK (UniProt Q12866)
- Sequence (Q12866 whole entry, looked up): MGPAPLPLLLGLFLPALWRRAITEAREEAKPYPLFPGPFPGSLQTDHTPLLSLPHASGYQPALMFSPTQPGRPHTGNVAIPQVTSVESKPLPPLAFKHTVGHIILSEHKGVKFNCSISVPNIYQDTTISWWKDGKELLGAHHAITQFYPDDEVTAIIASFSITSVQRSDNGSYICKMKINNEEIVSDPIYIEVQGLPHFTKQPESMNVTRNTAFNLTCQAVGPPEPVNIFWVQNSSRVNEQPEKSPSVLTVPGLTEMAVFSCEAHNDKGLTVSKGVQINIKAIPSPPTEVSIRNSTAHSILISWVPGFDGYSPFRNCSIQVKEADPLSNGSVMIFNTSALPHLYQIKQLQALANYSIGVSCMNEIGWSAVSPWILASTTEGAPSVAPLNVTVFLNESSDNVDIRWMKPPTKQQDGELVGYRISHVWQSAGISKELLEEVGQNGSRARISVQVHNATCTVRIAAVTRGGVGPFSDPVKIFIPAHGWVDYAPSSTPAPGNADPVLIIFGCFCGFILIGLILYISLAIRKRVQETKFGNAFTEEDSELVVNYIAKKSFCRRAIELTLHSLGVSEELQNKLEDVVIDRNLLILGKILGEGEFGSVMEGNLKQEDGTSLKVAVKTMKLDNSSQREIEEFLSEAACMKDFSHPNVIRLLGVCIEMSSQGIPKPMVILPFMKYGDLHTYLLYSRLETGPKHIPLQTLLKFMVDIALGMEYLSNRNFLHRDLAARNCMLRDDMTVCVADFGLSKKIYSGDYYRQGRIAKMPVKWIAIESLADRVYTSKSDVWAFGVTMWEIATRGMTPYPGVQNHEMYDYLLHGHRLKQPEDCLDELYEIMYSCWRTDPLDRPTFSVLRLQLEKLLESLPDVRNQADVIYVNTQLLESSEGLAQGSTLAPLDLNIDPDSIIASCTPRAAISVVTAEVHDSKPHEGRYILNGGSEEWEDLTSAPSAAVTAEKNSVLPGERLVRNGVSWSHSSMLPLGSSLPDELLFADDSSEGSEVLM
- Assay details: phosphorylation enrichment, bacterial display (enrichment ratio); higher = better substrate or ligand; peptides without Tyr show the background;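 also: 11-residue human phosphosite peptides and single-mutation variants displayed on the E. coli surface, counted by deep sequencing, each peptide's frequency after selection divided by its frequency in the unselected input library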;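 also: frequency after pTyr selection over input frequency; kinase dosed for 20-30% of maximal phosphorylation in three min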
Exercise: for every item that follows, state its recorded phosphorylation enrichment.
Give bare numbers.

Known results for sequences:
| Query sequence | Assay target | Measured metric | Observed result |
| --- | --- | --- | --- |
| GEKKAYVRLAP [RPL23A_Y137] | MERTK (UniProt Q12866) | phosphorylation enrichment | 0.373 |
| RLGNQHVNVMN [SLC3A1_Y461_Y461H] | MERTK (UniProt Q12866) | phosphorylation enrichment | 0.53 |
| GESLTYASTTF [C1orf162_Y120] | MERTK (UniProt Q12866) | phosphorylation enrichment | 0.574 |

Need phosphorylation enrichment for each of these sequences.
1. FQQLFYLLQTN [IQGAP2_Y890_YF]
2. GVVVPYEPPEV [TP53_Y220_S215G]
3. PAKPRYRARQR [KCNJ11_Y26_E23K]
4. AGQEDCDRLRP [CDC42_Y64_Y64C]
5. SAEEDYKADAK [KCNT1_Y876_M877K]
6. VDEVLYEDSST [MTHFS_Y197]
7. HEGKIYEYNQV [ZNF665_Y162]

Result:
1: 0.867; 2: 0.387; 3: 0.935; 4: 0.364; 5: 0.497; 6: 0.492; 7: 6.51

====

- Assay target: MERTK (UniProt Q12866)
- Assay details: phosphorylation enrichment, bacterial display (enrichment ratio); higher = better substrate or ligand; peptides without Tyr show the background
Measured metric: phosphorylation enrichment
Give bare numbers.

// below: answered sequences
| Query sequence | phosphorylation enrichment |
| --- | --- |
| HQNGMYGLHQD [SGSH_Y89] | 0.678 |
| SEHLTYLEFKS [RASGRP1_Y215] | 0.459 |
| AAVDTYCRHNF [HLA-DRB1_Y107_YF] | 0.497 |
| ESAAIYNPVIF [RHO_Y301_K296E_YF] | 4.16 |
| NACGLYHTMNG [GATA5_Y216_K218T] | 3.18 |

Would you mind listing phosphorylation enrichment for each of the following sequences?
1. KVKGEYDMTVP [AHNAK_Y964]
2. AMGAVYQAAAL [HYOU1_Y421]
3. KPVEEYANCHL [TF_Y593]
4. YKTPIYPYLLP [PLD2_Y578_T577I]
5. SYVVRYNQPRV [GRIN2D_Y736_M733V]
6. KLGDVYVNVAF [PGK1_Y161_D164V]
7. IKKFKYGIEEH [GJA1_Y137]
8. TVINKYQGKLF [HGD_Y249]

Result:
0.463
0.431
0.544
2.08
0.375
0.471
0.323
0.398
